- tested_system: SBD1(E184W)-2 (Lactococcus lactis, UniProt Q9CES5, E184W)
- Sequence (Q9CES5 27-484, stated change not applied): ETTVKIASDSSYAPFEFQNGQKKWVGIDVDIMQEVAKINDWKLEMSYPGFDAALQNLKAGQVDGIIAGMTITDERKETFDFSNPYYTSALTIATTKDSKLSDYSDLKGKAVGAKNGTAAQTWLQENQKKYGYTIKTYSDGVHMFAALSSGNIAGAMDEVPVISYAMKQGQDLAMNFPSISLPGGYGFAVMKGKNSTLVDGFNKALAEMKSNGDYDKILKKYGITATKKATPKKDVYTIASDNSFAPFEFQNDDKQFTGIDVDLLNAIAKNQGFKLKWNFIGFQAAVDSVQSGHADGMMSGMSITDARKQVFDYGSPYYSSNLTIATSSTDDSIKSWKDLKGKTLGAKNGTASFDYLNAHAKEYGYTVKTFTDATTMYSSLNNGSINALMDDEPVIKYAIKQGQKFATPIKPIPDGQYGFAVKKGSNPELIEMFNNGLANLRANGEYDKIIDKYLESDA
- assay_method_text: Isothermal titration calorimetry, tandem variant with inactive SBD1
- particulars: binding to SBD2 in SBD1-2(E184W) (inactive SBD1); ITC
pKd: −log10 of the molar value.
quantity_kind: pKd

# compound, tested_system, quantity_kind, data_value
data = [
    ("NC(=O)CC[C@H](N)C(=O)O [glutamine]", "SBD1(E184W)-2 (Lactococcus lactis, UniProt Q9CES5, E184W)", "pKd", 5.82),
]

----------
- tested_system: SBD1 in SBD1-Δ5-SBD2 (Lactococcus lactis, UniProt Q9CES5, DEL252-256)
- Sequence (Q9CES5 27-484, stated change not applied): as above
- assay_method_text: Isothermal titration calorimetry, SBD1 site of linker deletion mutant
- Format: binding
- particulars: ITC

# structure_smiles_string, Kd / nM
data = [
    ("NC(=O)C[C@H](N)C(=O)O", 60),
]
